- Assay target: T1, GST-HttExon1Q21 (recombinant huntingtin exon 1 protein with 21 polyQ repeats fused to an N-terminal GST tag) (human, UniProt P08515 1-218 = GST; P42858 1-88)
- T1 construct: Expressed in E. coli BL21; also called GST-HD21; soluble GST-HD21; not shown: PreScission cleavage site
- T1 sequence (P08515 1-218, tags or fused parts left off): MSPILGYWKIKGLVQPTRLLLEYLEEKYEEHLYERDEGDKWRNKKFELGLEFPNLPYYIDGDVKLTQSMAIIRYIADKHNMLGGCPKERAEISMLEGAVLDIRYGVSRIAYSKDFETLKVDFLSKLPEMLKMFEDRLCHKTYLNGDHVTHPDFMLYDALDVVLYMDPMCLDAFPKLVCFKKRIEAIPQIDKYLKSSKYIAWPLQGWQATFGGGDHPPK
- Test: direct ELISA, antigen coated at 5 ug/ml

Binder: NI-302.64E5 (antibody, V domains shown) VH: EVQLVETGGGLVKPGGSLRLSCAASGFTFDQAWMSWVRQVPGKGLEWVGRIKTKTEGEATDYAAPVRGRFTISRDDSEDTVFLQMNSLKTEDTALYYCTSTGVLAAAVDVYWGQGTLVTVSS VL: DIQLTQSPDSLAVSLGERATMTCKSSQSLFYSYNNENYLAWYQQRPGQPPKLLIYWASTRESGVPDRFSGSGSGTDFTLTISSLQAEDVAVYYCQQYYSTPQTFGQGTKVDIK
binding result: binds
//
Binder: NI-302.74C11 (antibody, V domains shown) VH: EVQLVQSGTEVQKPGASVKVSCKASGYSFTGYFLHWVRQAPGQGLEWMGWINPNSGDTNYAEKFRGRIIMTRDTSVSTAHMELSSLRFDDTALYYCTREAPDPGAETDVWGQGTTVTVSS VL: QSVLTQPPSVSVSPGQTARITCSGDAVPKQYIYWYQQKPGQAPILVIYKDTQRPSGIPERFSGSNSGTTVTLTITGVQADDEGDYYCQSADSSATWVFGGGTKLTVL
binding result: binds
//
Binder: NI-302.55D8 (antibody, V domains shown) VH: QVQLVQSGSEVKKPGASVKVSCKASGYTFTDYYIHWVRQAPGQGLEWMGRINPNNGGTNYAQNFQGWVTMTRDTSISTAYMELSRLRSDDTAVYYCARVGGELLREGGYHYYMDVWGKGTTVTVSS VL: QSVLTQPPSVSGAPGQRVTISCTGNSSNIGAGYDVHWYQQLPGTAPKLLIFDNTNRPSGVPDRFSGSKSGTSASLAITGLQAEDEANYHCQSYDNSLSGSWVFGGGTKLTVL
binding result: binds
